Biological target: P. falciparum apicoplast DNA polymerase (Pf-apPOL) (Plasmodium falciparum, UniProt Q8ILY1)
Sequence (Q8ILY1 entry or part of it): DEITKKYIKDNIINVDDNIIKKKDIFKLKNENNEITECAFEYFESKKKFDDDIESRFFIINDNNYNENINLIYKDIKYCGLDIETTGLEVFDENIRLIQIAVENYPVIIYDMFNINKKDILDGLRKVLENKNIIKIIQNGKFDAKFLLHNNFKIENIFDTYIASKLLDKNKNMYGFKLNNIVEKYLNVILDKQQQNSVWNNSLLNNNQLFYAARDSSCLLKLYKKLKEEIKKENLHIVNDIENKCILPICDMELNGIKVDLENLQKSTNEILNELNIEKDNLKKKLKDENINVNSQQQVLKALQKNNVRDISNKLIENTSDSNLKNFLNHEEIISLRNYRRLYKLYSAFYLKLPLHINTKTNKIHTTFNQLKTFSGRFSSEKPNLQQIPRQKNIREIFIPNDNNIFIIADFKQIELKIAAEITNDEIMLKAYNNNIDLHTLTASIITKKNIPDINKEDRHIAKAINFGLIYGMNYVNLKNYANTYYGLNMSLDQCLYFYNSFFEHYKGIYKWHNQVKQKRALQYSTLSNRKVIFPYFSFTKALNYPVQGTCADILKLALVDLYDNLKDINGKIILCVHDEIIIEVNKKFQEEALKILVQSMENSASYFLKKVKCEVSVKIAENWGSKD
Assay: Fluorescence-based high-throughput DNA polymerase assay (molecular beacon), primary screen and dose-response
Assay type: biochemical
Conditions: DRC-1; 90'; concentration 5

| compound | target_under_test | value_units | % inhibition Apol 90' |
| --- | --- | --- | --- |
| COc1cc(/C=C2\S/C(=N/C(C)=O)NC2=O)cc(Br)c1OCC(=O)O [KU0057841] | P. falciparum apicoplast DNA polymerase (Pf-apPOL) (Plasmodium falciparum, UniProt Q8ILY1) | % | -2.326 |
| Cc1cccc(CC(=O)N2CCc3c(nc4cc(-c5ccccc5)[nH]n4c3=O)C2)c1 [Molecule 12] | P. falciparum apicoplast DNA polymerase (Pf-apPOL) (Plasmodium falciparum, UniProt Q8ILY1) | % | 28 |
| COc1cccc(Oc2c(C(F)(F)F)oc3cc(OC(=O)N(C)C)ccc3c2=O)c1 [Molecule 52] | P. falciparum apicoplast DNA polymerase (Pf-apPOL) (Plasmodium falciparum, UniProt Q8ILY1) | % | 19.0717 |
| O=[N+]([O-])c1ccc(/C=C/c2ccc3ccccc3n2)o1 [Molecule 21, O=N(=O)c1ccc(o1)/C=C/c1ccc2c(n1)cccc2] | P. falciparum apicoplast DNA polymerase (Pf-apPOL) (Plasmodium falciparum, UniProt Q8ILY1) | % | 34.694 |
| CC(C)(C)OC(=O)COc1ccc2cc(-c3ccccc3)c(=O)oc2c1 [Molecule 81] | P. falciparum apicoplast DNA polymerase (Pf-apPOL) (Plasmodium falciparum, UniProt Q8ILY1) | % | 3.443 |
| O=C(Cn1ccc2c(=O)[nH]ccc21)Nc1ccc(Cl)cc1 [Molecule 36, O=C(Cn1ccc2c1cc[nH]c2=O)Nc1ccc(cc1)Cl] | P. falciparum apicoplast DNA polymerase (Pf-apPOL) (Plasmodium falciparum, UniProt Q8ILY1) | % | 11.3565 |
| CSC1=C(C#N)C(=C(C#N)C#N)NC(c2ccccc2)=N1 [Molecule 2, CSc1nc([nH]c(=C(C#N)C#N)c1C#N)c1ccccc1] | P. falciparum apicoplast DNA polymerase (Pf-apPOL) (Plasmodium falciparum, UniProt Q8ILY1) | % | 34.1727 |
| Cc1ccc2c(C(=O)NCCc3cccnc3)cc(NC(=O)C(C)C)cc2n1 [KU0206096] | P. falciparum apicoplast DNA polymerase (Pf-apPOL) (Plasmodium falciparum, UniProt Q8ILY1) | % | 3.264 |
| O=C(O)CC1=NN(c2cccc([N+](=O)[O-])c2)C(=O)C1 [KU0100531] | P. falciparum apicoplast DNA polymerase (Pf-apPOL) (Plasmodium falciparum, UniProt Q8ILY1) | % | 18.7201 |
| O=C(NC(C(Cl)Cl)S(=O)(=O)c1ccccc1)c1ccccc1 (stereo not shown) [KU0045239] | P. falciparum apicoplast DNA polymerase (Pf-apPOL) (Plasmodium falciparum, UniProt Q8ILY1) | % | 16.8163 |
| O=C(Nc1nnc(-c2cccs2)o1)c1ccc([N+](=O)[O-])o1 [Molecule 74] | P. falciparum apicoplast DNA polymerase (Pf-apPOL) (Plasmodium falciparum, UniProt Q8ILY1) | % | 1.687 |
| COCC(=O)Nc1c(-c2cccc(F)c2)nc2cc(C)ccn12 [Molecule 44, COCC(=O)Nc1c(nc2n1ccc(c2)C)c1cccc(c1)F] | P. falciparum apicoplast DNA polymerase (Pf-apPOL) (Plasmodium falciparum, UniProt Q8ILY1) | % | 18.1602 |
| COc1ccc(NC(=O)Cn2ccc3c(=O)[nH]ccc32)cc1 [Molecule 13, COc1ccc(cc1)NC(=O)Cn1ccc2c1cc[nH]c2=O] | P. falciparum apicoplast DNA polymerase (Pf-apPOL) (Plasmodium falciparum, UniProt Q8ILY1) | % | 18.8368 |
| CCOc1ccccc1-c1nc(-c2ccc(=O)[nH]c2)no1 [Molecule 76, CCOc1ccccc1c1onc(n1)c1ccc(=O)[nH]c1] | P. falciparum apicoplast DNA polymerase (Pf-apPOL) (Plasmodium falciparum, UniProt Q8ILY1) | % | 6.12 |
| CC(=O)c1cc2c(N)c(/C(N)=N/C#N)sc2nc1C [KU0015866] | P. falciparum apicoplast DNA polymerase (Pf-apPOL) (Plasmodium falciparum, UniProt Q8ILY1) | % | -1.631 |
| O=C(Nc1c2c(nn1-c1ccc(Oc3ccccc3)cc1)CSC2)c1ccco1 [KU0055927] | P. falciparum apicoplast DNA polymerase (Pf-apPOL) (Plasmodium falciparum, UniProt Q8ILY1) | % | 16.7633 |

All values here come from paper PMC9090415.
